Test system: Plasmodium falciparum
Test: Inhibition of Plasmodium falciparum protein farnesyltransferase at 5 nM by scintillation proximity assay
recorded metric: inhibition (%)

# example entries with known answers
{"compound": "Cn1cnc(S(=O)(=O)N2CCC(CN(C3Cc4cc(C#N)ccc4N(Cc4cncn4C)C3)S(=O)(=O)c3ccccn3)CC2)c1 (centres undefined)", "unit symbol": "%", "inhibition": 20}
{"compound": "Cn1cncc1CN1CC(N(CCn2ccnc2)S(=O)(=O)c2ccccn2)Cc2cc(C#N)ccc21 (centres undefined)", "unit symbol": "%", "inhibition": 91}
{"compound": "Cn1cnc(S(=O)(=O)N(Cc2ccc(C(=O)O)cc2)C2Cc3cc(C#N)ccc3N(Cc3cncn3C)C2)c1 (centres undefined)", "unit symbol": "%", "inhibition": 19}
{"compound": "Cn1cnc(CN2CC(N(Cc3ccc(C(F)(F)F)o3)S(=O)(=O)c3cn(C)cn3)Cc3cc(-c4ccccc4)ccc32)c1 (centres undefined)", "unit symbol": "%", "inhibition": 46}
{"compound": "CCC(C)NC(=O)c1ccc2c(c1)CC(N(CC(=O)NC(C)(C)C)S(=O)(=O)c1cn(C)cn1)CN2Cc1cncn1C (centres undefined)", "unit symbol": "%", "inhibition": 2}

P: Cc1ccccc1CN(C1Cc2cc(-c3ccccc3)ccc2N(Cc2cn(C)cn2)C1)S(=O)(=O)c1cn(C)cn1 (centres undefined)
Q: COC(=O)N1CCC(CN(C2Cc3cc(C#N)ccc3N(C(C)c3cnc[nH]3)C2)S(=O)(=O)c2ccccn2)CC1 (centres undefined)
Exercise: compare P and Q ; which one has the greater inhibition? Select an item and report its label. Q
(Q: 79%, P: 0%)

FYI, the data here is from ChEMBL document CHEMBL1148785.
